Origin of values: PubChem BioAssay (NCATS)

- protocol.summary: Validation screen for small molecules that induce genotoxicity in human embryonic kidney (HEK293T) cells expressing luciferase-tagged ELG1 (AID 493106)
- measurement.context: luminescence; series mostly up to 46.1 µM
Records with an inconclusive call do not appear. The source made the active and inactive calls. Calls come from the whole dose curve; as a rule, active = well fitted activation curve with a large enough effect; inconclusive = small, poorly fitted or top-dose-only effect; inactive = no such curve, though single readings can be large or run the other way.
Could you please pick one outcome from this set? true (1) for active, false (0) for inactive

Q: I would be grateful if you could indicate the recorded call for `CC(C)[N+](C)(CCOC(=O)C1c2ccccc2Oc2ccccc21)C(C)C` .
Result: false (0)

Q: Would you mind telling me which call this test gave `CNCCCN1c2ccccc2CCc2ccccc21` ?
Result: false (0)

Q: Which outcome did this test record for the compound `FC(F)(F)c1ccccc1-n1ccnc1` ?
Result: false (0)

Q: Per the records of this test, what outcome belongs to CNCCC(Oc1ccccc1OC)c1ccccc1 (configuration not stated) ?
Result: false (0)

Q: Identify the outcome logged in this assay for the compound shown: `Brc1c(NC2=NCCN2)ccc2nccnc12`
Result: false (0)

Q: Call for entry `CCCC(C(=O)OCCN(CC)CC)(c1ccccc1)c1ccccc1` :
Result: false (0)

Q: For `O=C(O)CCCCCCCC(=O)O` , which call appears in the assay record?
Result: false (0)

Q: Test call, this compound: `COCC(=O)O[C@]1(CCN(C)CCCc2nc3ccccc3[nH]2)CCc2cc(F)ccc2[C@@H]1C(C)C`
Result: false (0)

Q: // return assay outcome for `CCN(CC)CCCN(c1ccccc1)C1Cc2ccccc2C1`
Result: false (0)

Q: Please indicate how the test categorized `CN(C)C(=O)Oc1cccc([N+](C)(C)C)c1` .
Result: false (0)

Q: Hi team, can someone confirm the assay call for `NC(N)=NC(=O)Cc1c(Cl)cccc1Cl` ?
Result: false (0)

Q: Please indicate how the test categorized CCCCCN(CCCCC)C(=O)C(CCC(=O)O)NC(=O)c1ccc(Cl)c(Cl)c1 (configuration not stated) .
Result: false (0)

Q: Assay outcome for `CC(=O)Oc1cc(C(C)C)c(OCCN(C)C)cc1C` : what was it?
Result: false (0)

Q: Write down the call the test reported for this compound. Item: NS(=O)(=O)c1cc2c(cc1Cl)NC(C1CC3C=CC1C3)NS2(=O)=O (configuration not stated)
Result: false (0)

Q: Outcome logged for Nc1c2c(nc3ccccc13)CCCC2O (configuration not stated) in this assay:
Result: false (0)

Q: State the result this test recorded for `CCCCNc1ccc(C(=O)OCCN(C)C)cc1` .
Result: false (0)

Q: Outcome logged for `CCC(=O)c1ccc2c(c1)N(CCCN(C)C)c1ccccc1S2` in this assay:
Result: false (0)

Q: Check the results log: what was the call for `CN=C(NC#N)NCCSCc1nc[nH]c1C` ?
Result: false (0)

Q: # fetch the recorded call for `CCCN(CCC)CCc1cccc2c1CC(=O)N2` here
Result: false (0)

Q: For this compound, state the assay outcome: CCCN(CCC)C(=O)C(CCC(=O)O)NC(=O)c1ccccc1 (configuration not stated)
Result: false (0)

Q: What is the recorded call for this compound in the test? `C[C@]12C=CC(=O)C=C1CC[C@H]1[C@@H]3C[C@@H](O)[C@](O)(C(=O)CO)[C@@]3(C)C[C@H](O)[C@@]12F`
Result: false (0)

Q: Could you kindly confirm the outcome this assay logged for `COc1cc(C(=O)OCCCN2CCCN(CCCOC(=O)c3cc(OC)c(OC)c(OC)c3)CC2)cc(OC)c1OC` ?
Result: true (1)

Q: What was the test verdict on COC(=O)C1=C(C)NC(C)=C(C(=O)OC(C)(C)CN(C)CCC(c2ccccc2)c2ccccc2)C1c1cccc([N+](=O)[O-])c1 (configuration not stated) ?
Result: false (0)

Q: Assay result, entry `CN(C)CC[C@@H](c1ccc(Br)cc1)c1ccccn1` — outcome?
Result: false (0)

Q: Assay result, entry CNC1(C)C2CCC(C2)C1(C)C (configuration not stated) — outcome?
Result: false (0)

Q: Outcome? `C[C@]12CCC(=O)C=C1CC[C@@H]1[C@@H]2C(=O)C[C@@]2(C)[C@H]1CC[C@]2(O)C(=O)CO`
Result: false (0)

Q: For `C[N+](C)(C)CCOC(=O)CCC(=O)OCC[N+](C)(C)C` , what call appears in the results of this test?
Result: false (0)

Q: For `CCCOc1ccccc1-c1nc2n[nH]nc2c(=O)[nH]1` , what call appears in the results of this test?
Result: false (0)

Q: Recorded call for OC(CCN1CCCCC1)(c1ccccc1)C1CCCCC1 (configuration not stated) ?
Result: false (0)

Q: Would you mind telling me which call this test gave `CC1=NS(=O)(=O)c2cc(Cl)ccc2N1` ?
Result: false (0)

Q: # lookup: test call for `O=C(O)CN(CCOCCOCCN(CC(=O)O)CC(=O)O)CC(=O)O`
Result: false (0)

Q: Tell me the recorded outcome of this test for `CCN(CC)CC(=O)Nc1c(C)cccc1C` .
Result: false (0)

Q: State the result this test recorded for CC(C)NCC(O)c1cc(O)cc(O)c1 (configuration not stated) .
Result: false (0)

Q: Dear all, I need the recorded test outcome for CC(C(=O)O)c1ccc(CC2CCCC2=O)cc1 (configuration not stated) , thank you.
Result: false (0)

Q: # fetch the recorded call for `NC(=O)c1ncn([C@@H]2O[C@H](CO)[C@@H](O)[C@H]2O)c1O` here
Result: false (0)

Q: # lookup: test call for `OCCN1CCN(CC/C=C2/c3ccccc3Sc3ccc(C(F)(F)F)cc32)CC1`
Result: false (0)

Q: Dear colleague, could you share the recorded outcome for `CCCN1C[C@H](CSC)C[C@@H]2c3cccc4[nH]cc(c34)C[C@H]21` when you have a moment?
Result: false (0)

Q: Entry `CN(C)C(=O)Oc1ccc[n+](C)c1` : call = ?
Result: false (0)

Q: For this compound, state the assay outcome: `CSc1ccc(C(=O)c2[nH]c(=O)[nH]c2C)cc1`
Result: false (0)

Q: Query: recorded result category for `CCn1nc(C(=O)O)c(=O)c2cc3c(cc21)OCO3` in this test
Result: false (0)

Q: Entry COCCc1ccc(OCC(O)CNC(C)C)cc1 (configuration not stated) : call = ?
Result: false (0)

Q: What did the test return for `COCCCC/C(=N\OCCN)c1ccc(C(F)(F)F)cc1` ?
Result: false (0)

Q: What outcome does the record of this test show for `NC(N)=N/N=C/c1c(Cl)cccc1Cl` ?
Result: false (0)

Q: Which outcome was entered for the compound COCCOC(=O)C1=C(C)NC(C)=C(C(=O)OC(C)C)C1c1cccc([N+](=O)[O-])c1 (configuration not stated) in this test?
Result: false (0)

Q: What outcome does the record of this test show for `Cc1nc2ccccn2c(=O)c1CCN1CCC(C(=O)c2ccc(F)cc2)CC1` ?
Result: false (0)

Q: Just curious, what result did `O=C(O)CN(CCN(CC(=O)O)CC(=O)O)CCN(CC(=O)O)CC(=O)O` get here?
Result: false (0)

Q: In this assay, the call recorded for `COc1ccc2c(c1OC)C(=O)O[C@@H]2[C@H]1c2c(cc3c(c2OC)OCO3)CCN1C` was what?
Result: false (0)
